IC50 values, listed per item
# SYSTEM TESTED: T1, Human PD-L1 expressed on cells (human, UniProt Q9NZQ7 19-290)
# T1 construct: One entry used for transfected and natively expressing cells; also called CHO-S hPD-L1; CHO human PD-L1
# T1 sequence (Q9NZQ7 19-290 limits assumed): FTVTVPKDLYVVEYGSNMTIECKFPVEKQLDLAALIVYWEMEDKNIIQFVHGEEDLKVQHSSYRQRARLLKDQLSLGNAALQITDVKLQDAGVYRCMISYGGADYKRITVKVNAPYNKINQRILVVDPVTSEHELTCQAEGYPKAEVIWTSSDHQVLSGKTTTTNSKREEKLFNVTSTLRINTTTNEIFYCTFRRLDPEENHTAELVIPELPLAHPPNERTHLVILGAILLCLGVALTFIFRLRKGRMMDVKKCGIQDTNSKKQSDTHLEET
# METHOD SUMMARY: flow cytometry on CHO hPD-L1 cells, competitor biotin-PD-1-Fc, n = 2
The reply should be a number in nM, with the unit left off.

1. 84G09 (human IgG1) (antibody, V domains shown, also called clone 84609; lead antibody) VH: EVQLVESGGGLVQPGRSLRLSCAASGFTFDDYAMHWVRQTPGKGLEWVSGISWKSNIIGYADSVKGRFTISRDNAKNSLYLQMNSLRAEDTALYYCARDITGSGSYGWFDPWGQGTLVTVSS VL: DIQMTQSPSSLSASVGDRVTITCRASQSISSYLNWYQQKPGKAPKPLIYVASSLQSGVPSSFSGSGSGTDFTLTISSLQPEDFATYYCQQSYSNPITFGQGTRLEIKR: 1.41

Problem: Please supply the value of reported IC50 for the item 414B06 (antibody, V domains shown, also called 414606) VH: EVHLVESGGGLVQPGGSLRLSCAASGFTFSSYWMNWVRQAPGKGLEWVANIKQDGSEKYYVDSVKGRFTVSRDNAKNSLYLQMNSLRAEDTAVYYCARVRQWSDYSDYWGQGTPVTVSS VL: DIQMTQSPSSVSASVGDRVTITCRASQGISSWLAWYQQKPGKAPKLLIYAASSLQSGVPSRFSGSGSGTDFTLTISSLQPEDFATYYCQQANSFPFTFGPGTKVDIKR
Result: 1.22

Problem: Please supply the value of reported IC50 for the item 413G05 (antibody, human IgG1, kappa, V domains shown) VH: QVQLVESGGGLVKPGGSLRLSCAASGFTFSDYYMSWIRQVPGKGLEWVSYISTSGSTIYYADSVKGRFTISRDNAKNSLYLQMNSLRAEDAAVYHCARGITGTNFYHYGLGVWGQGTTVTVSS VL: DIQMTQSPSSVSASVGDRVTITCRASQGINSWLAWYQQKPGKAPKLLIYAASTLQSGVPSRFSGSGSGADFTLTISSLQPEDFATYYCQQVNSFPLTFGGGTKVEIKR
Result: 1.17

Problem: Please supply the value of reported IC50 for the item 416E01 (human IgG1) (antibody, V domains shown) VH: EVQLAESGGGLVQPGGSLRLSCAASGFTFSNYAMSWVRQTPGKGLEWVSAISFSGGTTYYADSVKGRFTISRDNSKNTLYLHMNSLRADDTAVYYCAKDEAPAGATFFDSWGQGTLVTVSS VL: DIQMTQSPSSVSASVGDRVTITCRASQGIRRWLAWYQQKPGKAPKLLISGASSLQSGVPSRFSGSGSGTDFTLIITSLQPEDFATYYCQQANSFPITFGQGTRLEIKR
Result: 0.89
